Data origin, for the record: ChEMBL document CHEMBL5291721

TARGET: Alpha-2A adrenergic receptor (Homo sapiens, UniProt P08913); note: assay procedure not described here
Sequence (P08913 whole entry): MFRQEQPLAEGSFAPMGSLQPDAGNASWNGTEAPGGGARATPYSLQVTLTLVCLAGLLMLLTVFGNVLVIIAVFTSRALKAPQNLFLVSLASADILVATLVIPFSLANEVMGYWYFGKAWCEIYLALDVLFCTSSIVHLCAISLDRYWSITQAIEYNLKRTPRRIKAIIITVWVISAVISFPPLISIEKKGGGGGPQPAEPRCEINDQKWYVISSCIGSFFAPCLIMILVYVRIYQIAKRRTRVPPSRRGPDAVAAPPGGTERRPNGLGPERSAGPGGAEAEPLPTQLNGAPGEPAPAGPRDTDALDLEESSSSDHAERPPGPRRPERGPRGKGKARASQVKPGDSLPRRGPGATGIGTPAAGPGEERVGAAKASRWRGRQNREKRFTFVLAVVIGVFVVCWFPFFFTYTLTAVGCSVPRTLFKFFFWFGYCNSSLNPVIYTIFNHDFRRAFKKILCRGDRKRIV
Reported AC50 values for a set of molecules

MOLECULE: Nc1ccn(C[C@@H](CO)OCP(=O)(O)O)c(=O)n1 [CIDOFOVIR]
MEASUREMENT NAME: AC50
REPORTED MEASUREMENT: > 30 µM

Quote Alpha-2A adrenergic receptor (Homo sapiens, UniProt P08913) AC50 for entry CC(C)N1CCOC(c2cccc(C(F)(F)F)c2)C1 (stereo not drawn) [OXAFLOZANE] .
> 30 µM

Quote Alpha-2A adrenergic receptor (Homo sapiens, UniProt P08913) AC50 for entry Cc1c(C(C)C)c(=O)n(-c2ccccc2)n1C [PROPYPHENAZONE] .
> 30 µM

* * *

Reported AC50 values for a set of compounds
TARGET: Muscarinic acetylcholine receptor M1 (Homo sapiens, UniProt P11229); note: assay procedure not described here
Sequence (P11229 whole entry): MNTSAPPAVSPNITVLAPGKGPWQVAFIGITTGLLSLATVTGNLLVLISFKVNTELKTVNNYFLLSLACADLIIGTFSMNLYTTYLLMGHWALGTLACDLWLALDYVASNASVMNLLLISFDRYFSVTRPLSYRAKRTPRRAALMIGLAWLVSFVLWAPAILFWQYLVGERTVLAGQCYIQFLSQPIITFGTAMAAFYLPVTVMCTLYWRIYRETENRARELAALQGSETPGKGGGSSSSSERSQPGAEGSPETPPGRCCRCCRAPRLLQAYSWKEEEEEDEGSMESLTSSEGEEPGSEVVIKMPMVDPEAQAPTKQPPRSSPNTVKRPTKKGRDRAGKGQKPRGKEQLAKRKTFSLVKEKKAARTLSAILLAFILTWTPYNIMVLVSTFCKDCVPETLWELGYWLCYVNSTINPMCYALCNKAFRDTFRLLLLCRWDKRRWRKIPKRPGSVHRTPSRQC
Type: functional

COMPOUND: O=C(C[S+]([O-])Cc1ccco1)NC/C=C\COc1cc(CN2CCCCC2)ccn1 (centres undefined) [LAFUTIDINE]
AC50: > 10 µM
//
COMPOUND: Cc1cnc(Nc2ccc(OCCN3CCCC3)cc2)nc1Nc1cccc(S(=O)(=O)NC(C)(C)C)c1 [FEDRATINIB]
AC50: 1.2 µM
//
COMPOUND: COc1ccc2c3c1O[C@H]1C(=O)CC[C@H]4[C@@H](C2)N(C)CC[C@]314 [HYDROCODONE]
AC50: > 10 µM
//
COMPOUND: COc1cc(C(=O)NCc2ccc(OCCN(C)C)cc2)cc(OC)c1OC [TRIMETHOBENZAMIDE]
AC50: > 30 µM
//
COMPOUND: C[C@H](Cn1cnc2c(N)ncnc21)OCP(=O)(O)O [TENOFOVIR ANHYDROUS]
AC50: > 30 µM
//
COMPOUND: CCC(NC(C)C)C(O)c1ccc(O)c(O)c1 (centres undefined) [ISOETHARINE]
AC50: > 30 µM
//
COMPOUND: CCCCOC(=O)C(=O)Nc1cccc(-c2nnn[nH]2)c1 [TAZANOLAST]
AC50: > 30 µM
//
COMPOUND: CCC1(CC)C(=O)NC(=O)N(C)C1=O [METHARBITAL]
AC50: > 10 µM

Let's switch to this compound now.
Supply AC50 value. Item: Cc1ccc(-c2ncc(Cl)cc2-c2ccc(S(C)(=O)=O)cc2)cn1 [ETORICOXIB]
> 10 µM

* * *

Endpoint: AC50. System: Sodium-dependent serotonin transporter (Homo sapiens). Items follow. Note: assay procedure not described here.
Sequence (P31645 whole entry): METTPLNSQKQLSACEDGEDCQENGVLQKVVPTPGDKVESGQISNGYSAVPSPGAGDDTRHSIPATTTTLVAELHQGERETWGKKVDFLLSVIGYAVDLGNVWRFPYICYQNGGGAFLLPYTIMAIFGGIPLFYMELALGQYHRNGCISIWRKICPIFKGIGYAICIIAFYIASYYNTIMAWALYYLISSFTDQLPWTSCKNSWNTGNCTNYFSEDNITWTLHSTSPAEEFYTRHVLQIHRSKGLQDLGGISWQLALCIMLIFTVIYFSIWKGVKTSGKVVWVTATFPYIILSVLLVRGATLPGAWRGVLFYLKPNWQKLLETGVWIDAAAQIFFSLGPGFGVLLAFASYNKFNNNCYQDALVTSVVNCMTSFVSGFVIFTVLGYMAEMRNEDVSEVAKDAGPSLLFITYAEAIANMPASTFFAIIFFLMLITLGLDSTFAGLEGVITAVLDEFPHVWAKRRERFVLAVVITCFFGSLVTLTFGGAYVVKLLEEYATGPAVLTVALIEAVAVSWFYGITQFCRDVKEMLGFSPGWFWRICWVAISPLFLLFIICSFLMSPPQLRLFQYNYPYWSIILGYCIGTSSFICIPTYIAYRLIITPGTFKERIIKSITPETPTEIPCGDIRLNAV

COMPOUND: c1cnc2cc3c(cc2n1)[C@@H]1CNC[C@H]3C1
AC50: > 30 µM

Let's switch to this compound now.
Quote Sodium-dependent serotonin transporter (Homo sapiens) AC50 for entry `OCC(CO)N[C@H]1C[C@](O)(CO)[C@@H](O)[C@H](O)[C@H]1O` .
> 30 µM

* * *

TARGET: Glucocorticoid receptor (Homo sapiens, UniProt P04150); note: assay procedure not described here
Sequence (P04150 whole entry): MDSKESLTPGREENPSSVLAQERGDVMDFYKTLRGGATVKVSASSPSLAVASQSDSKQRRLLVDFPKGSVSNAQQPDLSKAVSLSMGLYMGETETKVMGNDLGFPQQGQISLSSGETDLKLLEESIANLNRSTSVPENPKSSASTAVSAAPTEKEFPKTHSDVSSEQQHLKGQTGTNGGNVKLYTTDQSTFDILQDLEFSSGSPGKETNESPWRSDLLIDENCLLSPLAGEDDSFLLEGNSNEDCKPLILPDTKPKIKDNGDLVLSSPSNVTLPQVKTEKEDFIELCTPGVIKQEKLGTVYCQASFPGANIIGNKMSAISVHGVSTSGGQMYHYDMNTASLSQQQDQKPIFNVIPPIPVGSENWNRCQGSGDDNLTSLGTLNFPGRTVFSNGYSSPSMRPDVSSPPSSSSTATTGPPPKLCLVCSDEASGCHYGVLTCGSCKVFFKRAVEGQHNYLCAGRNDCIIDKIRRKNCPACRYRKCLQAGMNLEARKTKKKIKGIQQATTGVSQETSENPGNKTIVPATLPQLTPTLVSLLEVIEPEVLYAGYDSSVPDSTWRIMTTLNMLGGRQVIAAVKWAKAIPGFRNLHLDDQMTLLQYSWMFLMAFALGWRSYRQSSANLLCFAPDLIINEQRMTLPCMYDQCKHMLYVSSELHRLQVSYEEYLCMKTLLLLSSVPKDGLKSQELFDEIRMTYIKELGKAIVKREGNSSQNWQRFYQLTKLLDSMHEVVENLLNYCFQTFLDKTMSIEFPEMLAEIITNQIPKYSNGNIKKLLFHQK
Reported AC50 values for a set of compounds

Examples with answers:
COMPOUND: NS(=O)(=O)c1ccc(N2CCCCS2(=O)=O)cc1
REPORTED MEASUREMENT: > 30 µM
--
COMPOUND: Oc1cc(Cl)ccc1Oc1ccc(Cl)cc1Cl [TRICLOSAN]
REPORTED MEASUREMENT: > 30 µM
--
COMPOUND: CC(NC(C)(C)C)C(=O)c1cccc(Cl)c1 (stereo not given) [BUPROPION]
REPORTED MEASUREMENT: > 30 µM

Quote Glucocorticoid receptor (Homo sapiens, UniProt P04150) AC50 for entry CN(C)CCOC(=O)C(c1ccccc1)C1(O)CCCC1 (stereo not given) [CYCLOPENTOLATE] .
> 10 µM

Quote Glucocorticoid receptor (Homo sapiens, UniProt P04150) AC50 for entry Nc1cc(N2CCCCC2)nc(N)[n+]1[O-] [MINOXIDIL] .
> 30 µM

Quote Glucocorticoid receptor (Homo sapiens, UniProt P04150) AC50 for entry CCN1C(=O)NC(c2ccccc2)C1=O (stereo not given) [ETHOTOIN] .
> 30 µM

Quote Glucocorticoid receptor (Homo sapiens, UniProt P04150) AC50 for entry C[C@@H](Cc1ccccc1)N(C)Cc1ccccc1 [BENZPHETAMINE] .
> 10 µM

Quote Glucocorticoid receptor (Homo sapiens, UniProt P04150) AC50 for entry CC(=O)[C@@]1(O)CC[C@H]2[C@@H]3C[C@H](C)C4=CC(=O)C=C[C@]4(C)[C@@]3(F)[C@@H](O)C[C@@]21C [FLUOROMETHOLONE] .
0.004 µM

Quote Glucocorticoid receptor (Homo sapiens, UniProt P04150) AC50 for entry CN1CCC(=C2c3ccccc3CC(=O)c3sccc32)CC1 [KETOTIFEN] .
> 10 µM

Quote Glucocorticoid receptor (Homo sapiens, UniProt P04150) AC50 for entry CC(C)(N)Cc1ccccc1 [PHENTERMINE] .
> 30 µM
